biological target: PI 3-kinase delta (Homo sapiens); assay: TR-FRET Adapta assay, assay F; conditions: read-out: Assay F PI3Kδ IC50
Sequence (O00329 whole entry): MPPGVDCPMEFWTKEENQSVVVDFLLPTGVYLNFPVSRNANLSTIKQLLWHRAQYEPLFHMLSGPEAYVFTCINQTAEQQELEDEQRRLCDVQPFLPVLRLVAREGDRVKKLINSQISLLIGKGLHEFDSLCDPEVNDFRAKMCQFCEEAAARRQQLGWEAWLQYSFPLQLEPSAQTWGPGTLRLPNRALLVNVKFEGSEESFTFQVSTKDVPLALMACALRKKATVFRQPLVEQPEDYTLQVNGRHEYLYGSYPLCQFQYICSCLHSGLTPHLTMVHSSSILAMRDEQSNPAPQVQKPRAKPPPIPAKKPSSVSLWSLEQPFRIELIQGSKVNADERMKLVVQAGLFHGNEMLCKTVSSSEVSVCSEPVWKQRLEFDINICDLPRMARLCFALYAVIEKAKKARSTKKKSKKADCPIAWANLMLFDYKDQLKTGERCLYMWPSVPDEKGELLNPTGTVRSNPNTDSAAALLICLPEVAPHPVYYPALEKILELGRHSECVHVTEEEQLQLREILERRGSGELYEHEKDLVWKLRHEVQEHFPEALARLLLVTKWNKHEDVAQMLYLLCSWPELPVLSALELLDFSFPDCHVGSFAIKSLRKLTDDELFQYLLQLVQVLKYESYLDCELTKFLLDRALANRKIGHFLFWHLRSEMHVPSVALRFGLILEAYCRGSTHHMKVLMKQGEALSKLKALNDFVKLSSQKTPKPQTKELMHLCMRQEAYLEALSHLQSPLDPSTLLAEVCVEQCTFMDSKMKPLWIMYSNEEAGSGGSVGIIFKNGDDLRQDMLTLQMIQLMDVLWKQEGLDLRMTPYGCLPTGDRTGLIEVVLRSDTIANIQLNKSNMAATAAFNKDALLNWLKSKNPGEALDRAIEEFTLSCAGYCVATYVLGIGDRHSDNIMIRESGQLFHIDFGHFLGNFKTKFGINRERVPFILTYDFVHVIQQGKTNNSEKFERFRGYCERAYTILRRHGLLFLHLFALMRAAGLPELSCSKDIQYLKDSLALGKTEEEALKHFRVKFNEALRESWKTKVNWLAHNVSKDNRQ
Sequence (P27986 461-568 partner): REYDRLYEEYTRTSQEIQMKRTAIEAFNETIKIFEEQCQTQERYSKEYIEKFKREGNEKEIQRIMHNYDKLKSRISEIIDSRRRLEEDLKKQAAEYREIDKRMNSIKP
Can you tell me pIC50 for the items I'm about to list?
One number for each entry, as −log10 of the molar value.

# input Print PI 3-kinase delta (Homo sapiens) pIC50 for `Cc1ccc(S(=O)(=O)NCCC(C)(C)O)cc1-c1cnc(N)c(-c2ccc(N3CCCC3)nc2)n1` .
# output 5.60

# input System PI 3-kinase delta (Homo sapiens). Read-out pIC50. Item `Cc1ccc(S(=O)(=O)NCCC(C)(C)O)cc1-c1cnc(N)c(-c2cnn(CCC(C)C)c2)n1` . Report value.
# output 7.40

# input Fetch value of pIC50 on PI 3-kinase delta (Homo sapiens) for `Cc1ccc(S(=O)(=O)NCC(C)(C)O)cc1-c1cnc(N)c(-c2cnn(C)c2)n1` .
# output 6.14

Proceeding to the next compound to report its pIC50.
# input For PI 3-kinase delta (Homo sapiens), give the measured pIC50 of the entry Cc1ccc(S(=O)(=O)NCC2CCCOC2)cc1-c1cnc(N)c(-n2cncn2)n1 (stereo not shown)
# output 6.21

----------
Could you please report measured pIC50 for the items listed next?
target: UniProtKB P42336; test: Kinase Glo Luminescent Kinase Assay (Kglo), assay A; assay type: biochemical; conditions: read-out: Assay A PI3Kα IC50
Sequence (P42336 whole entry): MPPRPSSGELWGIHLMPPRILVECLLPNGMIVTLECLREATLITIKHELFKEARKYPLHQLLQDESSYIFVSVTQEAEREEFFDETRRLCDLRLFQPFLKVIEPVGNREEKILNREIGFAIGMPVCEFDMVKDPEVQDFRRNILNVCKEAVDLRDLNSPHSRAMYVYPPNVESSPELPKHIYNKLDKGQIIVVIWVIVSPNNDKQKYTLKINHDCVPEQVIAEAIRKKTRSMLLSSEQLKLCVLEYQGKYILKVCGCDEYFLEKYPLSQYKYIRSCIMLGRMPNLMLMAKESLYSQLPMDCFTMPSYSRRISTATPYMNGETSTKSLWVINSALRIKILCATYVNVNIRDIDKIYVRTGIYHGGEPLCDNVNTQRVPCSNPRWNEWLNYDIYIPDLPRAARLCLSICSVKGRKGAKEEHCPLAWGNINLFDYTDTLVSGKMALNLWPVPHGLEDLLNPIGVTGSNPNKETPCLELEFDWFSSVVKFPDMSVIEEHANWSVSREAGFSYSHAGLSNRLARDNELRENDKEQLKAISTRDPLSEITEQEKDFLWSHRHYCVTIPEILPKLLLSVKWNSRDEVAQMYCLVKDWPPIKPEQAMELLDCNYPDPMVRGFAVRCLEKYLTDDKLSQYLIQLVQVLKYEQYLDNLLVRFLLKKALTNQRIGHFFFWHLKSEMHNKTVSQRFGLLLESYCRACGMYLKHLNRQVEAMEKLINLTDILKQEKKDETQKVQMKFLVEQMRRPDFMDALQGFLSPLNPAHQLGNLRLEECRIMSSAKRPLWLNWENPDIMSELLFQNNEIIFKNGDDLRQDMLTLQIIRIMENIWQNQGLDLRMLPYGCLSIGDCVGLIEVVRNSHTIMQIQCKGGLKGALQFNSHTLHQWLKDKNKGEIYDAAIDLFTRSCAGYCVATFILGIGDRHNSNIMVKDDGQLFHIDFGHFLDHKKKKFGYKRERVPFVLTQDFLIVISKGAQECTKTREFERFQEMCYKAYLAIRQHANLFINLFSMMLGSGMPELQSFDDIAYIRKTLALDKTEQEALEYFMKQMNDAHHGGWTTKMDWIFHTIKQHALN
Answers are plain numbers, as −log10 of the molar value.

# input Read off the recorded pIC50 for `Cc1ccc(S(=O)(=O)NC[C@@H]2CCOC2)cc1-c1cnc(N)c(-n2cncn2)n1`
# output 6.24

# input Please give measured pIC50 of the following entry: `Cc1ccc(S(=O)(=O)NCC2(CO)COC2)cc1-c1cnc(N)c(-n2cncn2)n1`
# output 6.20

***
# input Complete the entry with pIC50 for Cc1ncc(-c2nc(-c3cc(S(=O)(=O)NC[C@H]4CCCO4)ccc3C)cnc2N)s1 (single isomer, unassigned) [Example 45.6b]
# output 6.42

----------
I'd appreciate it if you could supply IC50 values for the items below.
target: UniProtKB P42338; experiment: Kinase Glo Luminescent Kinase Assay (Kglo), assay B; format: biochemical; conditions: read-out: Assay B PI3Kβ IC50
Sequence (P42338 whole entry, one chain of several): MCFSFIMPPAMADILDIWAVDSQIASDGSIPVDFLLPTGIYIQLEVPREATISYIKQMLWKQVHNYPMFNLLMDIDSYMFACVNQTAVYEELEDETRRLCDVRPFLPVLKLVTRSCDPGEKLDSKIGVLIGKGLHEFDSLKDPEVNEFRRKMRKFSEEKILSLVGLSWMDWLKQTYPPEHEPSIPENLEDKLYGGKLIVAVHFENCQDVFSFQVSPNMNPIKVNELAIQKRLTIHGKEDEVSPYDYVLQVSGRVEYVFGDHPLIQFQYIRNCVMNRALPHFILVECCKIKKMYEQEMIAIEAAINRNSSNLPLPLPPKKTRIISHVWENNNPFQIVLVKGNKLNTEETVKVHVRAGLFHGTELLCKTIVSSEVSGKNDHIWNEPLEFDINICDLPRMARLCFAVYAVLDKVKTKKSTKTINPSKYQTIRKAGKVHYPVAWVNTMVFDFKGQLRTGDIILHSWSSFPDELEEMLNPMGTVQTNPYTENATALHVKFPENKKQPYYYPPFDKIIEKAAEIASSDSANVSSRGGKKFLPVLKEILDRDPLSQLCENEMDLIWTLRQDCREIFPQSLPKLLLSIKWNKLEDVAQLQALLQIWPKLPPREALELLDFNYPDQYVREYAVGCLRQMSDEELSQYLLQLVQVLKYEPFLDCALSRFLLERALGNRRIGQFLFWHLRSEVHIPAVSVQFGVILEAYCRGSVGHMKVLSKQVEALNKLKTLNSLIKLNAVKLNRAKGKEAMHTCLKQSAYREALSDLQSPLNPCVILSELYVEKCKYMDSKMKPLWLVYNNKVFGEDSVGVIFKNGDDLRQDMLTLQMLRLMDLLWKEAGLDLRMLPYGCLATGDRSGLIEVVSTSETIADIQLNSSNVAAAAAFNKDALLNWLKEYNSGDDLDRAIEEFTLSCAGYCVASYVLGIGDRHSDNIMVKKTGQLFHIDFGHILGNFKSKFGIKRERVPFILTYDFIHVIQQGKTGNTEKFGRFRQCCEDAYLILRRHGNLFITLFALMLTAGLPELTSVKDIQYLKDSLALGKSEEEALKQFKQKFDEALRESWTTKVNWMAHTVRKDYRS
Numbers only, in µM.

Below: 2 compounds and their reported IC50.
# input Given the compound Cc1ccc(S(=O)(=O)NC2CC3(CC(O)C3)C2)cc1-c1cnc(N)c(-n2cncn2)n1 (single isomer, unassigned) [Example 70b] , write its reported IC50.
# output 2.5

# input # return recorded IC50 for input `Cc1cc(-c2nc(-c3cc(S(=O)(=O)NCCN4CCOCC4)ccc3C)cnc2N)ccn1`
# output 5.3

# input for lookup
# input Please supply the value of reported IC50 for the item `Cc1ccc(S(=O)(=O)N[C@H]2CC[C@H](O)CC2)cc1-c1cnc(N)c(-c2nc(C3CC3)no2)n1`
# output 6.06

----------
Field: IC50. Provide a value for each of the compounds that follow.
biological target: UniProtKB Q8NEB9; assay: Kinase Glo Luminescent Kinase Assay (Kglo), assay C; format: biochemical; conditions: read-out: Assay C VPS34 IC50
Sequence (Q8NEB9 whole entry, species assumed): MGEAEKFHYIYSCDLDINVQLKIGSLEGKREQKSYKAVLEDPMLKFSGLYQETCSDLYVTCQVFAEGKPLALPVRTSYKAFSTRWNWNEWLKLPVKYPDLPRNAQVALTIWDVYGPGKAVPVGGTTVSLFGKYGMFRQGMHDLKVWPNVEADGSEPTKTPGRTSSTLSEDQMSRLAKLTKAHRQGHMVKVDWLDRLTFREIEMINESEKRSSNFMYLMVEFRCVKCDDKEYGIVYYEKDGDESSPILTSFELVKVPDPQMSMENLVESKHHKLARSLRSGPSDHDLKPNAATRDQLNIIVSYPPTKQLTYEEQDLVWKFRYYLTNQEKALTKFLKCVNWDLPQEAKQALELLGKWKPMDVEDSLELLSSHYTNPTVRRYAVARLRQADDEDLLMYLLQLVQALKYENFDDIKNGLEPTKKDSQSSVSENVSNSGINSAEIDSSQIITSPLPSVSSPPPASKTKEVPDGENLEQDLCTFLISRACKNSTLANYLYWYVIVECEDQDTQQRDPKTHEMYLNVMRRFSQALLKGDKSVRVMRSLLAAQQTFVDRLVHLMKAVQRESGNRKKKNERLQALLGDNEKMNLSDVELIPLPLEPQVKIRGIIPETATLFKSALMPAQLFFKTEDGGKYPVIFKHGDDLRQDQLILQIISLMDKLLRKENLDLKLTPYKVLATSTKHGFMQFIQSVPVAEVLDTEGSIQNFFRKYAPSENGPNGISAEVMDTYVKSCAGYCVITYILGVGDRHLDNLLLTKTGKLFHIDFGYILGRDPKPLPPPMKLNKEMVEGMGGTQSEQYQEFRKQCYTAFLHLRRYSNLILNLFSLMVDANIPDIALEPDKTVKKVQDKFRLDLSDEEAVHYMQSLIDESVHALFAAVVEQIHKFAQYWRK
Where a name gives a salt, the structure may show the parent alone.

Answered examples (3):
# input Output IC50 of `Cc1ncn(-c2nc(-c3cc(S(=O)(=O)NCCC(C)(C)O)ccc3C)cnc2N)n1`
# output > 9.1 µM

# input For `CC[C@@H](CO)NS(=O)(=O)c1ccc(C)c(-c2cnc(N)c(-c3ccnc(C)c3)n2)c1` , write its IC50.
# output > 9.1 µM

# input Output measured IC50 for this item: Cc1ncc(-c2nc(-c3cc(S(=O)(=O)NCC4COCCN4C)ccc3C)cnc2N)s1 (stereo not shown)
# output 2.6 µM

Proceed to the following item.
# input Hello, please tell me recorded IC50 for this one: Cc1ccc(S(=O)(=O)NC[C@@H]2CCNC2)cc1-c1cnc(N)c(-n2cncn2)n1 [Example 127.57, trifluoroacetic acid salt]
# output > 10 µM
